molecular target: recombinant human ALK5 (TGF-βR1) protein (Homo sapiens, UniProt P36897); assay: Biochemical ALK5 (TGF-βR1) assay to measure pKi (LANCE Ultra ULight kinase assay); conditions: apparent pKi, converted from pIC50 by Cheng-Prusoff
Sequence (P36897 34-503): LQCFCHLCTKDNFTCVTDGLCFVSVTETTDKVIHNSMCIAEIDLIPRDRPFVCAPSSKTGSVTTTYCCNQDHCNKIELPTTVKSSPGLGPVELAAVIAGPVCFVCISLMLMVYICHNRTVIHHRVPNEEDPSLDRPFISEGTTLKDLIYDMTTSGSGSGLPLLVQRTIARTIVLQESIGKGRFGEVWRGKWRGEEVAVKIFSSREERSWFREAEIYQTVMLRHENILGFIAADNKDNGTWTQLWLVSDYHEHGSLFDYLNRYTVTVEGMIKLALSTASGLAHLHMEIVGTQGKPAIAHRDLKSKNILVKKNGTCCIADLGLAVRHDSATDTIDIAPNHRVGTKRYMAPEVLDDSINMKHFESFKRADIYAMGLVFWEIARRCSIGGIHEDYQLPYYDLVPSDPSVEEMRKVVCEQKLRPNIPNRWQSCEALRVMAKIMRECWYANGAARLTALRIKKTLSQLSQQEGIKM
reported_endpoint: Ki

>  <molecule>
Cc1cccc(-c2nc(Nc3ccnc(Nc4ccc(C(=O)NC5CCNC5)cc4)n3)c3cccn3n2)n1 (stereo not drawn)

>  <Ki>
0.0398 to 0.316 nM

$$$$
>  <molecule>
Cc1cccc(-c2nccc(Nc3ccnc(Nc4ccc(CN5CC(C(=O)OCC6CNC6)C5)cc4)n3)n2)n1

>  <Ki>
0.0398 to 0.316 nM

$$$$
>  <molecule>
CCOC(=O)CC1CNCCN1c1ccc(Nc2nccc(Nc3ccnc(-c4cccc(C)n4)n3)n2)cc1 (stereo not drawn)

>  <Ki>
0.0398 to 0.316 nM

$$$$
>  <molecule>
COC(=O)[C@H]1CN(c2ccc(Nc3nccc(Nc4ccnc(-c5cccc(C)n5)n4)n3)cc2)CCN1

>  <Ki>
0.0398 to 0.316 nM

$$$$
>  <molecule>
Cc1cccc(-c2nccc(Nc3ccnc(Nc4ccc(CCO)cc4)n3)n2)n1

>  <Ki>
0.398 to 3.16 nM

$$$$
>  <molecule>
Cc1cccc(-c2nccc(Nc3ccnc(Nc4ccc(CN5CCN(Cc6ccccc6)CC5)cc4)n3)n2)n1

>  <Ki>
0.0398 to 0.316 nM

$$$$
>  <molecule>
Cc1cccc(-c2nccc(Nc3ccnc(Nc4ccc(C)c(CN5C6CCC5CNC6)c4)n3)n2)n1

>  <Ki>
0.0398 to 0.316 nM

$$$$
>  <molecule>
Cc1cccc(-c2nc(Nc3ccnc(Nc4ccc(C(=O)O)cc4)n3)c3cccn3n2)n1

>  <Ki>
0.398 to 3.16 nM

$$$$
>  <molecule>
Cc1cccc(-c2nccc(Nc3ccnc(Nc4ccc(CN5[C@@H](C)CNC[C@@H]5C)cc4)n3)n2)n1

>  <Ki>
0.0398 to 0.316 nM

$$$$
>  <molecule>
Cc1cccc(-c2nccc(Nc3ccnc(Nc4csc(C(=O)O[C@H]5CC[C@@](C)(N)CC5)c4)n3)n2)n1

>  <Ki>
0.0398 to 0.316 nM

$$$$

*Q* Which Ki value is on record for Cc1cccc(-c2nccc(Nc3ccnc(Nc4ccc(CN5CC(N(C)C)C5)cc4)n3)n2)n1 ?
*A* 0.0398 to 0.316 nM

*Q* Which Ki value is on record for Cc1cccc(-c2nccc(Nc3ccnc(Nc4ccc(CN5CCC(C(=O)OC6CNC6)CC5)cc4)n3)n2)n1 ?
*A* 0.0398 to 0.316 nM

*Q* Which Ki value is on record for Cc1cccc(-c2nccc(Nc3ccnc(Nc4ccc(NCC5CNC5)cc4)n3)n2)n1 ?
*A* 0.0398 to 0.316 nM

*Q* Which Ki value is on record for Cc1cccc(-c2nccc(Nc3ccnc(Nc4ccc(C(=O)OCCN5CCN6CCCC6C5)nc4)n3)n2)n1 (stereo not drawn) ?
*A* 0.398 to 3.16 nM

*Q* Which Ki value is on record for Cc1cccc(-c2nccc(Nc3ccnc(Nc4ccc(CN5CCCC(C(=O)NC6CNC6)C5)cc4)n3)n2)n1 (stereo not drawn) ?
*A* 0.0398 to 0.316 nM

*Q* Which Ki value is on record for Cc1cccc(-c2nccc(Nc3ccnc(Nc4ccc(CN5CC(C(=O)O[C@H]6CCNC6)C5)cc4)n3)n2)n1 ?
*A* 0.0398 to 0.316 nM

---

Tested on: TGF-β-stimulated SMAD3 phosphorylation in BEAS-2B cells
Test: Cellular ALK5 potency assay, inhibition of TGF-β stimulated pSMAD3 formation in BEAS-2B cells
Assay type: cell-based
Conditions: Homo sapiens, pSMAD3, TGF-β 10 ng/mL, read-out: BEAS2B pIC50 (converted)
Procedure: The potency of compounds of the present disclosure for inhibition of TGF-β-stimulated SMAD3 phosphorylation was measured in BEAS-2B cells, a human lung epithelial cell line. […] For the assay, BEAS-2B cells were seeded at 7,500 cells/well (25 μL/well) in a 384-well plate and cultured overnight. […] AlphaLISA Acceptor and Detector beads (PerkinElmer) were added 2 hours apart, then incubated overnight to be read the next day. […] Data are expressed as pIC50 (negative decadic logarithm IC50) values.
Measured IC50 values are reported for all entries that follow.

# example entries with known answers
>  <compound>
Cc1cccc(-c2nccc(Nc3ccnc(Nc4ccc(NC(=O)C5CCCNC5)cc4)n3)n2)n1 (stereo not shown) [Compound 10]

>  <target_under_test>
TGF-β-stimulated SMAD3 phosphorylation in BEAS-2B cells

>  <IC50>
≤ 20 nM

$$$$
>  <compound>
Cc1cccc(-c2nccc(Nc3ccnc(Nc4cccc(N)c4)n3)n2)n1 [Compound 315]

>  <target_under_test>
TGF-β-stimulated SMAD3 phosphorylation in BEAS-2B cells

>  <IC50>
≤ 20 nM

$$$$
>  <compound>
Cc1cccc(-c2nccc(Nc3ccnc(Nc4ccc(N5CCNCC5)c(C)c4)n3)n2)n1 [Compound 515]

>  <target_under_test>
TGF-β-stimulated SMAD3 phosphorylation in BEAS-2B cells

>  <IC50>
25.1 to 158 nM

$$$$

*Q* Which IC50 value is on record for Cc1cccc(-c2nccc(Nc3ccnc(Nc4csc(C(=O)OC[C@H]5CC[C@H](N)CC5)c4)n3)n2)n1 [Compound 590] ?
*A* 25.1 to 158 nM

*Q* Which IC50 value is on record for Cc1cccc(-c2nccc(Nc3ccnc(Nc4ccccc4)n3)n2)n1 [Compound 43] ?
*A* ≤ 20 nM

*Q* Which IC50 value is on record for Cc1cccc(-c2nccc(Nc3ccnc(Nc4cc(C(=O)OCCN5CCNCC5)ccn4)n3)n2)n1 [Compound 624] ?
*A* 200 to 1260 nM

*Q* Which IC50 value is on record for Cc1cccc(-c2nccc(Nc3ccnc(Nc4ccc(N5CCN[C@@H](C(=O)O)C5)cc4)n3)n2)n1 [Compound 422] ?
*A* 200 to 1260 nM

*Q* Which IC50 value is on record for Cc1cccc(-c2nccc(Nc3ccnc(Nc4csc(C(=O)O[C@H]5CC[C@@](C)(N)CC5)c4)n3)n2)n1 [Compound 566] ?
*A* 25.1 to 158 nM

*Q* Which IC50 value is on record for Cc1cccc(-c2nccc(Nc3ccnc(Nc4nc(CN5CCNCC5)cs4)n3)n2)n1 [Compound 287] ?
*A* 25.1 to 158 nM

*Q* Which IC50 value is on record for Cc1cccc(-c2nccc(Nc3ccnc(Nc4ccc5[nH]nnc5c4)n3)n2)n1 [Compound 512] ?
*A* 25.1 to 158 nM

*Q* Which IC50 value is on record for Cc1cccc(-c2nccc(Nc3ccnc(Nc4ccc(CN5CC6(CNC6)C5)cc4)n3)n2)n1 [Compound 163] ?
*A* 25.1 to 158 nM

*Q* Which IC50 value is on record for Cc1cccc(-c2nccc(Nc3ccnc(Nc4ccc(N5CCN(Cc6ccccn6)CC5)cc4)n3)n2)n1 [Compound 136] ?
*A* 25.1 to 158 nM

*Q* Which IC50 value is on record for Cc1cccc(-c2nccc(Nc3ccnc(Nc4ccc(N5CCN(C(C)C)CC5)cc4)n3)n2)n1 [Compound 189] ?
*A* 25.1 to 158 nM

*Q* Which IC50 value is on record for Cc1cccc(-c2nccc(Nc3ccnc(Nc4ccc5c(c4)CCCN5)n3)n2)n1 [Compound 492] ?
*A* 25.1 to 158 nM

*Q* Which IC50 value is on record for Cc1cccc(-c2nccc(Nc3ccnc(Nc4ccc5c(c4)CN(C(C)C)CC5)n3)n2)n1 [Compound 198] ?
*A* 25.1 to 158 nM

*Q* Which IC50 value is on record for Cc1cccc(-c2nccc(Nc3ccnc(Nc4nc(CN5C[C@@H](C)N[C@@H](C)C5)cs4)n3)n2)n1 [Compound 391] ?
*A* 25.1 to 158 nM

---

Measured pKi values are reported for all entries that follow.
target: recombinant human ALK5 (TGF-βR1) protein (Homo sapiens); construct: purchased Life Technologies PR9075A; assay: Biochemical ALK5 (TGF-βR1) assay to measure pKi (LANCE Ultra ULight kinase assay); details: apparent pKi, converted from pIC50 by Cheng-Prusoff
pKi: −log10 of the molar value.

>  <compound>
Cc1cccc(-c2nccc(Nc3ccnc(Nc4cnn(CC5CNC5)c4)n3)n2)n1 [Compound 181]

>  <reported_endpoint>
pKi

>  <reported_result>
9.50 to 10.40

$$$$
>  <compound>
Cc1cccc(-c2nccc(Nc3ccnc(Nc4ccc(CN5CCCC(C(=O)OC6CCN(C)C6)C5)cc4)n3)n2)n1 (stereo not shown) [Compound 29]

>  <reported_endpoint>
pKi

>  <reported_result>
≥ 10.50

$$$$
>  <compound>
Cc1cccc(-c2nccc(Nc3ccnc(Nc4cccc(NC(=O)N5CCN(C(C)C)CC5)c4)n3)n2)n1 [Compound 531]

>  <reported_endpoint>
pKi

>  <reported_result>
9.50 to 10.40

$$$$

*Q* Which pKi value is on record for Cc1cccc(-c2nccc(Nc3ccnc(Nc4ccc(F)c(CN5CCSCC5)c4)n3)n2)n1 [Compound 461] ?
*A* 8.50 to 9.40

*Q* Which pKi value is on record for CC(=O)N(CC1CNC1)c1ccc(Nc2nccc(Nc3ccnc(-c4cccc(C)n4)n3)n2)cc1 [Compound 353] ?
*A* 9.50 to 10.40

*Q* Which pKi value is on record for CNCCNS(=O)(=O)c1ccc(Nc2nccc(Nc3ccnc(-c4cccc(C)n4)n3)n2)cc1 [Compound 427] ?
*A* 9.50 to 10.40

*Q* Which pKi value is on record for Cc1cccc(-c2nccc(Nc3ccnc(Nc4ccc(C(=O)OC[C@@H]5CCCN5)nc4)n3)n2)n1 [Compound 612] ?
*A* 9.50 to 10.40

Entry source: patent US20230399312A1
